- Tested Target: Mu-type opioid receptor (Rattus norvegicus, UniProt P33535, W318A)
- Sequence (P33535 whole entry W318A): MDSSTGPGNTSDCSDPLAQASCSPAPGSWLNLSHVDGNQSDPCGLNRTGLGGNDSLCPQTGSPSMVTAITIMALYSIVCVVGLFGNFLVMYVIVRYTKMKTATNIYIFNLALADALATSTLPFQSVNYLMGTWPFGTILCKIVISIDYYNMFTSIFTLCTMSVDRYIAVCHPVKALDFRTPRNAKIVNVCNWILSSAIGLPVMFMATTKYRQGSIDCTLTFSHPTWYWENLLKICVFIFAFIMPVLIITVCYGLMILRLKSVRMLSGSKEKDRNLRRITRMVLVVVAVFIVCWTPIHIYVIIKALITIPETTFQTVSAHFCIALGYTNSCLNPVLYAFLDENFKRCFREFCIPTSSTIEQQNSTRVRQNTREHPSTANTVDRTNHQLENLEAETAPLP
- Run Description: Displacement of [3H]diprenorphine from rat mu opioid receptor W318A mutant expressed in HEK293 cells
Observable: Ki (nM)
Give bare numbers, in nM.

Query COC(=O)[C@@H]1C[C@H](C(=O)c2ccccc2)C(=O)[C@H]2[C@@]1(C)CC[C@H]1C(=O)O[C@H](c3ccoc3)C[C@]21C yields Ki of 426

---

- Tested Target: Kappa-type opioid receptor (Rattus norvegicus, UniProt P34975)
- Sequence (P34975 whole entry): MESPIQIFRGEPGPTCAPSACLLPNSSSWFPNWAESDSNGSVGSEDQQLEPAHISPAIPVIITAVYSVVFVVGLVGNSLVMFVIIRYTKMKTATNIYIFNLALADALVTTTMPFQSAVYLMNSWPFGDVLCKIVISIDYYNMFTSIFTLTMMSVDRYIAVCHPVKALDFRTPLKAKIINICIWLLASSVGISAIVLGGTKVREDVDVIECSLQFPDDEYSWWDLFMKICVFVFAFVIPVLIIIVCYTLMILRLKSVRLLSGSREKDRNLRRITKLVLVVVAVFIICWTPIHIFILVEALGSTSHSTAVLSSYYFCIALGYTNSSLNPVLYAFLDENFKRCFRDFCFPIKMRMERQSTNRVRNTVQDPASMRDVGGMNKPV
Observable: Ki
Write your answer as a measured quantity: the number, then the unit.

Entry COC(=O)[C@@H]1C[C@H](C(=O)c2ccccc2)C(=O)[C@H]2[C@@]1(C)CC[C@H]1C(=O)O[C@H](c3ccoc3)C[C@]21C ; assay system Kappa-type opioid receptor (Rattus norvegicus, UniProt P34975); Ki recorded at 1380 nM

---

- Tested Target: Kappa-type opioid receptor (Rattus norvegicus, UniProt P34975, Y313A)
- Sequence (P34975 whole entry Y313A): as the sequence (P34975 whole entry) above, with Y313A counted along it
- Run Description: Displacement of [3H]diprenorphine from rat kappa opioid receptor Y313A mutant expressed in HEK293 cells
Observable: Ki (µM)
One number for each entry, in µM.

Summary line: COC(=O)[C@@H]1C[C@H](C(=O)c2ccccc2)C(=O)[C@H]2[C@@]1(C)CC[C@H]1C(=O)O[C@H](c3ccoc3)C[C@]21C , Kappa-type opioid receptor (Rattus norvegicus, UniProt P34975, Y313A), reported Ki = 3.87

---

- Tested Target: UniProtKB P33535
Observable: Ki (µM)
Give bare numbers, in µM.

Ki reported for this molecule COC(=O)[C@@H]1C[C@H](C(=O)c2ccccc2)C(=O)[C@H]2[C@@]1(C)CC[C@H]1C(=O)O[C@H](c3ccoc3)C[C@]21C : 0.245

---

- Run Description: Displacement of [3H]diprenorphine from chimeric rat kappa opioid receptor (1-227)/mouse delta opioid receptor (215-372) expressed in HEK293 cells
- Format: cell-based
Observable: pKi
Numbers only, as −log10 of the molar value.

Memo: COC(=O)[C@@H]1C[C@H](C(=O)c2ccccc2)C(=O)[C@H]2[C@@]1(C)CC[C@H]1C(=O)O[C@H](c3ccoc3)C[C@]21C , reported pKi: 6.35

The measurements presented in this section are drawn from ChEMBL document CHEMBL1142277.
